Source of measurements: the supplement of paper PMC4723716

Test system: Plasmodium falciparum NF54 gametocytes
ASSAY_SUMMARY: viability index relative to DMSO control (fraction); higher = less gametocyte killing
RECORDED_CONDITIONS: gametocyte stage: Stage II viability index; 12.5 µM; incubation time: 72 h
Rule: viability index below 0.3 gives fulfilled. Equal to or above 0.3 gives not fulfilled.

Reference set, count: 5
>>> df
                                   compound  qualitative_label
0    COc1cc2c(cc1OC)C1=NNC(=O)C1=NC(C)(C)C2          fulfilled
1       CCOc1ccc2nc(C)cc(Nc3ccc(Br)cc3)c2c1      not fulfilled
2  COc1ccc2c(c1)C1(Nc3ccccc3-c3nc4ccccc4n31)C(=O)N2 (stereo unspecified)          fulfilled
3  Nc1ccc(-c2nc3cc(Oc4ccc(Oc5ccc6[nH]c(-c7ccc(N)cc7)nc6c5)cc4)ccc3[nH]2)cc1          fulfilled
4  COc1cc(-c2nc(-c3ccccc3)c(-c3ccccc3)[nH]2)cc(OC)c1O          fulfilled

# TODO verify viability index < 0.3 strictly for this compound: CC(Oc1ccc(NC(=O)c2cccs2)cc1)C(=O)c1ccc(Cl)cc1 (stereo unspecified)
not fulfilled

# TODO verify viability index < 0.3 strictly for this compound: CCC(C)NCC(O)(c1ccc(Cl)cc1)c1ccc(Cl)cc1 (stereo unspecified)
fulfilled

# TODO verify viability index < 0.3 strictly for this compound: "Cc1cc(N2CCN(C3CCCC3)CC2)n2c(nc3ccccc32)c1C#N"
not fulfilled
